- system: UniProt Q02763
- Sequence (Q02763 whole entry, looked up): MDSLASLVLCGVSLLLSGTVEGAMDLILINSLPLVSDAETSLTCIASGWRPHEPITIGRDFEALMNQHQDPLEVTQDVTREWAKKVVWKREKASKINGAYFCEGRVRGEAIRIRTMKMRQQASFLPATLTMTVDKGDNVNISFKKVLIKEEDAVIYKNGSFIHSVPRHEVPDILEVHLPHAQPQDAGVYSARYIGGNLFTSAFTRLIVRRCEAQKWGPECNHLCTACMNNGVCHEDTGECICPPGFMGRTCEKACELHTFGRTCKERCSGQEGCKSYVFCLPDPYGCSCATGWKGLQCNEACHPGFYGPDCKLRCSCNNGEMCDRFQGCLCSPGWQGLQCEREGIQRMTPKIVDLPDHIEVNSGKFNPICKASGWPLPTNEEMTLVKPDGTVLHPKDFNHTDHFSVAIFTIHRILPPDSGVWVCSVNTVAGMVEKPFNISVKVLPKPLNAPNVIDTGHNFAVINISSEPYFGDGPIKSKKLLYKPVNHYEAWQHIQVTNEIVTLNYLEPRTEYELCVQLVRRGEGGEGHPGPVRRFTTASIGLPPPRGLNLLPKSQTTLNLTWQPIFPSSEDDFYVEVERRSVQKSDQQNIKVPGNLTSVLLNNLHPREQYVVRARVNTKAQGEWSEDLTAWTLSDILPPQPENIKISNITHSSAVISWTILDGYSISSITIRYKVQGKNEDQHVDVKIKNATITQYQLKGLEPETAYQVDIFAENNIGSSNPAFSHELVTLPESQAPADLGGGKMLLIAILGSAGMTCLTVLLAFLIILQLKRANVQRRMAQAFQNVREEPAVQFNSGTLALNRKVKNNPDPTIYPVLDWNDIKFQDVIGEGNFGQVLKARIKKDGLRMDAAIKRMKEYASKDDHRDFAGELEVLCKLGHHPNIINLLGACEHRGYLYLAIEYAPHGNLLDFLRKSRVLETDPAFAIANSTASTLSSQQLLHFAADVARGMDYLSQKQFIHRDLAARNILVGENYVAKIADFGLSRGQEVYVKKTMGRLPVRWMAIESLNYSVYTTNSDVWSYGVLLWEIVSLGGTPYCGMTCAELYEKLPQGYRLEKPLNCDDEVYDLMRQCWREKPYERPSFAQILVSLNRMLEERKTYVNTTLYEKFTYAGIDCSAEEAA
- assay protocol: KINOMEscan competition binding
- condition details: compound 10.0 µM
reported property: kinase still bound, per cent of control (%)
Field: numeric (%). Do not append units.

CCN(CCO)CCCOc1ccc2c(Nc3cc(CC(=O)Nc4cccc(F)c4)[nH]n3)ncnc2c1 ... 13

Entry under test: COc1ccc(N(C(=O)Oc2cc(C(=O)Nc3cccc(C(F)(F)F)c3)ccc2C)c2ccnc(Nc3ccc(N4CCN(C)CC4)cc3)n2)c(OC)c1 . Its kinase still bound, per cent of control was 0.05

Entry under test: COc1cc(N2CCC(C(N)=O)CC2)ccc1Nc1nc(N)c(Cl)c(Nc2ccccc2S(=O)(=O)C(C)C)n1 . Its kinase still bound, per cent of control was 100

Entry under test: Cc1cn(-c2cc(C(=O)Nc3ccc(C)c(NC(=O)c4ccno4)c3)cc(C(F)(F)F)c2)cn1 . Its kinase still bound, per cent of control was 100
